The origin of these recorded values is the supplement of paper PMC3334620.

PBM E-score values for the sequences below.
Biological target: Cin5 (UniProt P40917)
Sequence: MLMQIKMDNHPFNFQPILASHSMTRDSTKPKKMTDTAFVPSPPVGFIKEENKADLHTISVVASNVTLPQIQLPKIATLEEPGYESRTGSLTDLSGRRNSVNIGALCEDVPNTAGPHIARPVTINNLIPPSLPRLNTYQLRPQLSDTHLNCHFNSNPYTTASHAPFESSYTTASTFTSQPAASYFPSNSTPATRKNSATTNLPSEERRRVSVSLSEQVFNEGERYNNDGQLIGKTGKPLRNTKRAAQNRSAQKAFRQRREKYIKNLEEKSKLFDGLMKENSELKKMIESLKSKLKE
Assay: PBM E-score (8-mer binding enrichment) (E-score (-0.5 to 0.5)); higher = stronger / more preferred TF binding
Details: protein concentration: 100 nM; construct: GST-full length
In all, about 33,000 sequences were measured (“E-score (-0.5 to 0.5)”: median about -0.0059, highest 2% from about 0.26 on). The list comes from a sample in which the highest values are over-represented; it also holds close analogues and randomly drawn sequences.
Provide a numeric answer; units are not to be included.

Below are worked cases with known answers.
AATATTAG = 0.215
CAGATGAG = 0.0638
CAGGTCCC = -0.187

Using the record for ATAAAGTC , report its PBM E-score.
0.113

Next sequence: AGACTGCT
-0.00887

Next sequence: ATGATAGC
0.269

Next sequence: CACTGTTC
-0.108

Next sequence: AGCTATTG
0.01

Next sequence: TATAAGCA
0.256

Next sequence: CCTTCTTC
-0.107

Next sequence: GAGGTTAA
-0.0963

Next sequence: GATAACAA
0.1

Next sequence: CCTCCGAG
-0.16

Next sequence: ATAAAGTG
0.149

Next sequence: TGTATTAA
0.202

Next sequence: GGCGGCAA
-0.184

Next sequence: AGGTTCTC
-0.153

Next sequence: AATATTCA
0.24

Next sequence: AAATATTC
0.183

###

Target: Cin5 (UniProt P40917)
Sequence: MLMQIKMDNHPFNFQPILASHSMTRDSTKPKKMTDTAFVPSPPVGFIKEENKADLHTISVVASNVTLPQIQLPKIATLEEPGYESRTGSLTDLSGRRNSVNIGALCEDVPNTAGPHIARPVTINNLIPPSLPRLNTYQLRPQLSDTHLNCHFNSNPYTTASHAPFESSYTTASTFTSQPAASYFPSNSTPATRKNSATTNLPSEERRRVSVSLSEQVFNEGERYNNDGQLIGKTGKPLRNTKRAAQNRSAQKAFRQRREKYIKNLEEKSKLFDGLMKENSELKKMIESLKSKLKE
Assay: PBM E-score (8-mer binding enrichment) (E-score (-0.5 to 0.5)); higher = stronger / more preferred TF binding
Details: protein concentration: 100 nM; construct: GST-full length
Over roughly 33,000 sequences, “E-score (-0.5 to 0.5)” has its median near -0.0059; the highest 2% begin near 0.26. Shown is part of a subset that was picked to be rich in the highest values.
Class (by PBM E-score) -- low = under 0.01, mid = from 0.01 up to 0.2, high = 0.2 and over

Reference set, count: 2
CGATATTA = high
GAATATCA = mid

Textbook exercise: identify the category of the sequence given here, GCATATTA , according to its measured value.
high

Next sequence: GCACTGAA
low

Next sequence: GAGGGCCC
low

Next sequence: AGATATTA
mid

Next sequence: ACCGCGAC
low
